SYSTEM UNDER TEST: human 5-HT3 receptor (Homo sapiens, UniProt P46098)
Construct: purchased BIOLINKS K.K; host or cells: HEK-293 cells (membrane preparation)
Sequence (P46098 24-478): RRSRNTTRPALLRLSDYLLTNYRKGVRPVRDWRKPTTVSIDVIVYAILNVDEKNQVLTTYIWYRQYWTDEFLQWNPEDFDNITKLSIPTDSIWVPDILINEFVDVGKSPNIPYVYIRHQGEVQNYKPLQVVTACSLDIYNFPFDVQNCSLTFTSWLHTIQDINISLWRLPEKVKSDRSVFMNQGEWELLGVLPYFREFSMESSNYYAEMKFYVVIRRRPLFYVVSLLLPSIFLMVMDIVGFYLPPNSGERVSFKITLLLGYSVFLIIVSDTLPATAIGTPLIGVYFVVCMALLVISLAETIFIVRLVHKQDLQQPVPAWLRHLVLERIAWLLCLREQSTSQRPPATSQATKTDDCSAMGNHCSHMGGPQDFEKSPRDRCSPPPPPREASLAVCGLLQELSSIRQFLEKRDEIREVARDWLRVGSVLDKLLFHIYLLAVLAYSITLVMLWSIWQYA
ASSAY PROTOCOL: Measurement of affinity to human 5-HT3 receptor (in vitro), [3H]BRL-43694 binding
MEASUREMENT CONTEXT: test compound 100 nmols/L; [3H]BRL-43694 0.5 nmols/L; HEK-293 cell membrane expressing human 5-HT3 receptor; read-out: Percent Inhibition (%) on Each Receptor's Binding at 10^−7M, 5-HT3
Counter-ions that a name gives are not always drawn.
Known inhibition at 0.1 µM of a selection of compounds

COMPOUND | inhibition at 0.1 µM (%)
O[C@@H]1C[C@H]2CN(c3nccc4occc34)CCN2C1 [Production Example 114] | 91
Cc1ccc2nc(CCCCN3CCN(c4ccc5ccccc5n4)CC3)n(N)c(=O)c2c1 [Example 4-20] | 87.8
Nn1c(CCCCN2CCN(c3ccc4ccccc4n3)CC2)nc2c(c1=O)CCCC2 [Example 4-1] | 81.2
NN1Oc2c(sc3c2CCNC3)N=C1SCCCN1CCN(c2ccc3ccccc3n2)CC1 [Example 1-59, trihydrochloride] | 50
CCn1c(CCCCN2CCN(c3ccc4ccccc4n3)CC2)nc2c(c1=O)CC(C)CC2 (centres unmarked) [Example 7-13] | 93.6
CCN1CCN(c2nccc3ccccc23)CC1 [Production Example 37, 1-(4-ethylpiperazin-1-yl)isoquinoline] | 70.2
COc1cc2nc(CCCCN3CCN(c4ccc5ccccc5n4)CC3)n(C)c(=O)c2cc1OC [Example 7-22] | 5.3
Cn1c(NCCCN2CCN(c3ccc4ccccc4n3)CC2)nc2ccccc2c1=O [Example 7-30] | 92.4
CCn1c(CCCCN2CCN(c3cc(C)c4ccccc4n3)CC2)nc2c(c1=O)CCCC2 [Example 7-7] | 95
CC(CCCc1nc2c(c(=O)n1C)CCCC2)N1CCN(c2ccc3ccccc3n2)CC1 (centres unmarked) [Example 7-14] | 16.7
c1cc2ccsc2c(N2CCN3CCC[C@@H]3C2)n1 [Production Example 108] | 100
c1cc2sccc2c(N2CCN3CCC[C@H]3C2)n1 [Production Example 104] | 99.3
c1cc2occc2c(N2CCN3CCC[C@H]3C2)n1 [Production Example 105] | 96.4
Fc1ccc2ccnc(N3CCNCC3)c2c1 [Production Example 63, 7-fluoro-1-piperazin-1-ylisoquinoline] | 96.8
c1cc2occc2c(N2CCN3CCC[C@@H]3C2)n1 [Production Example 113] | 82.4
Cc1ccc2ccnc(N3CCN(C)CC3)c2c1 [Production Example 47] | 93.6
O=c1[nH]c(NCCCN2CCN(c3nc4ccccc4n4cccc34)CC2)nc2ccccc12 [Example 5-8] | 85.5
Nn1c(CCCCN2CCN(c3ccc4ccccc4n3)CC2)nc2sccc2c1=O [Example 4-23] | 79.3
COc1ccc2c(C)cnc(N3CCNCC3)c2c1 [Production Example 28] | 92.5
CN1CCN(c2nccc3cccnc23)CC1 [Production Example 23] | 85.8
